Measurement protocol: Cytotoxicity activity against human CCD-1059Sk cells assessed as cell growth inhibition incubated for 48 hrs in presence of Curcumin by MTS assay
Type: toxicity, cell-based
Endpoint label: IC50 at 48 h (µM)
Numeric only. Scale: µM

IC50 at 48 h for Oc1ccc(/C=C/c2cc(O)cc(O)c2)cc1 [RESVERATROL] is 83.1

* * *

Test system: CCRF-CEM
Measurement protocol: Anticancer activity against human CEM cells assessed as cell growth inhibition incubated for 48 hrs by Tryphan blue assay
Type: functional, cell-based
Endpoint label: pIC50
// field semantics: pIC50 = negative decimal log of concentration (mol/L)

pIC50 for `COc1cc(/C=C/c2ccc(C)cc2)cc(OC)c1OC` is 5.59

* * *

Assay system: Aromatase (Homo sapiens)
Sequence (P11511 whole entry): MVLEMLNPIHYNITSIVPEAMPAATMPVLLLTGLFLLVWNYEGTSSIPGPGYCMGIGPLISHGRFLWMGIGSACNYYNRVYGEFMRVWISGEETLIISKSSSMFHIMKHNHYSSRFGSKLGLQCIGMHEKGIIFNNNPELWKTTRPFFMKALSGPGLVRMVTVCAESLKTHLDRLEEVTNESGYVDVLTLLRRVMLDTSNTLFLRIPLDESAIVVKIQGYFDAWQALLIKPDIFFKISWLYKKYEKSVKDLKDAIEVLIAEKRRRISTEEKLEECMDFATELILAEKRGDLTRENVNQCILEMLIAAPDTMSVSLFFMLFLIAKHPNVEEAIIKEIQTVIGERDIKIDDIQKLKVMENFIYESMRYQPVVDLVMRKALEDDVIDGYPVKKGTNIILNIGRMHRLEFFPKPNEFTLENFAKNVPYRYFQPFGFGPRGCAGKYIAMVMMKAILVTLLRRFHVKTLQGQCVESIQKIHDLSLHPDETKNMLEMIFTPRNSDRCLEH
Measurement protocol: Inhibition of human recombinant aromatase using 7-methoxy-4-trifluoromethyl coumarin as substrate preincubated for 10 mins followed by compound addition measured after 30 mins in presence of NADPH by HTS analysis
Endpoint label: pIC50
// field semantics: pIC50 = negative decimal log of concentration (mol/L)

pIC50 for `COc1ccccc1/C=C/c1ccc(OC)c(OC)c1` is 4.07

* * *

Test system: L1210
Measurement protocol: Anticancer activity against mouse L1210 cells assessed as cell growth inhibition incubated for 48 hrs by MTT assay
Format: functional, cell-based
Protocol conditions: L1210, 48 h
Endpoint label: IC50 (nM)
Numeric only. Scale: nM

IC50 for `COc1cc(/C=C/c2ccc(C)cc2)cc(OC)c1OC` is 1200

* * *

What IC50 was measured for each of the following?
Tested on: Caco-2
Measurement protocol: cells
Protocol conditions: Homo sapiens, Caco-2, 48 h
Description: Anti cancer activity against human Caco-2 cell assessed as cell growth inhibition incubated for 48 hrs by Brdu assay
Numeric only. Scale: µM

IC50 for `Oc1ccc(/C=C/c2cc(O)cc(O)c2)cc1` is 190

IC50 for `COc1ccc(/C=C\c2cc(OC)cc(OC)c2)cc1` is 0.145

* * *

Measurement protocol: Cytotoxicity against mouse NIH3T3 cells assessed as cell growth inhibition by CyQuant assay
Assay type: toxicity, cell-based
pIC50: −log10 of the molar value.
Endpoint label: pIC50

pIC50 for `COc1cc(/C=C/c2ccc(OC(C)=O)cc2)cc(OC)c1` is < 4.70

pIC50 for `Oc1ccc(/C=C/c2cc(O)cc(O)c2)cc1` is < 4.70

* * *

Measurement protocol: Cytotoxicity activity against human CCD-1059Sk cells assessed as cell growth inhibition incubated for 48 hrs by MTS assay
Type: toxicity, cell-based
Doc: threshold 100 µM (exclusive). Items with IC50 at 48 h beneath it return TRUE; others return FALSE.

Enquiry: Just wondering, is IC50 at 48 h of `Oc1ccc(/C=C/c2cc(O)cc(O)c2)cc1` below 100 µM?
Return: FALSE

Enquiry: Just wondering, is IC50 at 48 h of `COc1ccc(/C=N/NC(=O)/C=C/c2ccc(O)c(OC)c2)cc1` below 100 µM?
Return: FALSE

Enquiry: Just wondering, is IC50 at 48 h of `COc1cc(/C=C/C(=O)N/N=C/c2ccc(O)c(OC)c2)ccc1O` below 100 µM?
Return: TRUE

Enquiry: Just wondering, is IC50 at 48 h of `COc1cc(/C=C/C(=O)CC(=O)/C=C/c2ccc(O)c(OC)c2)ccc1O` below 100 µM?
Return: FALSE

Enquiry: Just wondering, is IC50 at 48 h of `COc1cc(/C=N/NC(=O)/C=C/c2ccc(O)c(OC)c2)cc(OC)c1` below 100 µM?
Return: FALSE
